studySystem: type IV phosphodiesterase
protocolText: Type IV phosphodiesterase inhibiting activity
measurementContext: U937 type IV phosphodiesterase fraction, 0.28 μM cAMP, pH 7.5, 30° C., 30 minutes; read-out: PDEIV-IC50
Experimental: The following assay was used to evaluate the ability of the compound of the present invention to suppress type IV phosphodiesterase, according to Biochemical. Pharmacol. 48 (6), 1219-1223 (1994). 1) Type IV phosphodiesterase activity fractions were prepared as follows. Namely, human histiocytic lymphoma cell line U937 was cultured in an RPMI1640 medium containing 10% fetal calf serum to obtain 10^9 cells of U937. […]
assayReadout: IC50 (nM)

// below: answered molecules
In [3]: df
Out[3]:
                    compoundstructurestring                studysystem  assayreadout  unitabbreviation  measuredvalue
0  O=C(Nc1c(Cl)cncc1Cl)c1cn([C@H]2CC[C@H](O)CC2)c2ncccc2c1=O  type IV phosphodiesterase          IC50                nM            3.7
1  CCNC(=O)N1CCC(n2cc(C(=O)Nc3c(Cl)cncc3Cl)c(=O)c3cccnc32)CC1  type IV phosphodiesterase          IC50                nM            1.3

a. CCOC(=O)N1CCC(n2cc(C(=O)Nc3c(Cl)cncc3Cl)c(=O)c3cccnc32)CC1
b. O=C(Nc1ccncc1)c1cn(C2CCC2)c2ncccc2c1=O
c. O=C(Nc1ccncc1)c1cn([C@@H]2CCOC2)c2ncccc2c1=O
d. O=C(O[C@H]1CC[C@H](n2cc(C(=O)Nc3c(Cl)cncc3Cl)c(=O)c3cccnc32)CC1)c1ccccc1
Inquiry: # rank by IC50, ascending (min first) Write the labels out in the order the request specifies.
Reply text: a, d, b, c
(a: 2.3 nM, d: 50 nM, b: 120 nM, c: 330 nM)

1. CN(C)C(=O)[C@@H]1C[C@H](n2cc(C(=O)Nc3c(Cl)cncc3Cl)c(=O)c3cccnc32)CN1C(=O)OCc1ccccc1
2. O=C(Nc1cccnc1)c1cn(C2CC2)c2ncccc2c1=O
3. CO[C@H]1CC[C@H](n2cc(C(=O)Nc3ccncc3)c(=O)c3cccnc32)CC1
4. CN1CCN(n2cc(C(=O)Nc3c(Cl)cncc3Cl)c(=O)c3cccnc32)CC1
Inquiry: Please give the order of these molecules when sorted by IC50, largest value leading. Write the labels out in the order the request specifies.
Reply text: 3, 2, 4, 1
(3: 720 nM, 2: 150 nM, 4: 6.7 nM, 1: 2.1 nM)

a. O=C(Nc1c(Cl)cncc1Cl)c1cn([C@H]2C[C@H]3COC(=O)N3C2)c2ncccc2c1=O
b. N[C@H]1CC[C@H](n2cc(C(=O)Nc3c(Cl)cncc3Cl)c(=O)c3cccnc32)CC1
c. Cc1noc(NC(=O)c2cn([C@H]3CC[C@H](O)CC3)c3ncccc3c2=O)c1C
Inquiry: # rank by IC50, ascending (min first) Write the labels out in the order the request specifies.
Reply text: a, b, c

* * *

studySystem: type IV phosphodiesterase
protocolText: Type IV phosphodiesterase inhibiting activity
Assay type: biochemical, human
measurementContext: U937 type IV phosphodiesterase fraction, 0.28 μM cAMP, pH 7.5, 30° C., 30 minutes; read-out: PDEIV-IC50
Structures can show the parent of a compound that is named as a salt.
assayReadout: IC50 (µM)

// below: answered molecules
                                   molecule  unitabbreviation  measuredvalue
0  CCNC(=O)N[C@H]1CC[C@H](n2cc(C(=O)Nc3c(Cl)cncc3Cl)c(=O)c3cccnc32)CC1 [Example 71]                µM         0.0005
1  CO[C@H]1CC[C@H](n2cc(C(=O)Nc3c(Cl)cncc3Cl)c(=O)c3cccnc32)CC1 [Example 127]                µM         0.0072
2  COC(=O)N1CC(n2cc(C(=O)Nc3cccnc3)c(=O)c3cccnc32)C1 [Example 32]                µM            2.2
3  O=C(Nc1c(Cl)cncc1Cl)c1cn([C@@H]2CCOC2)c2ncccc2c1=O [Example 39]                µM           0.01
4  CC1(O)CCC(n2cc(C(=O)Nc3ccncc3)c(=O)c3cccnc32)CC1 (stereo not shown) [Example 194]                µM           0.96
5  O=C(Nc1ccncc1Cl)c1cn([C@H]2CC[C@H](O)CC2)c2ncccc2c1=O [Example 122]                µM            0.2
6  O=C(Nc1c(Cl)cncc1Cl)c1cn(C2CCS(=O)(=O)CC2)c2ncccc2c1=O [Example 102 (Sulfon)]                µM          0.016
7  CC(C)(C)C(=O)O[C@H]1CC[C@H](n2cc(C(=O)Nc3c(Cl)cncc3Cl)c(=O)c3cccnc32)CC1 [Example 128]                µM         0.0057

1. O=C(Nc1c(Cl)cncc1Cl)c1cn(C2CCC2)c2ncccc2c1=O [Example 145]
2. O=C(CN1CCC(n2cc(C(=O)Nc3c(Cl)cncc3Cl)c(=O)c3cccnc32)CC1)OCc1ccccc1 [Example 49]
3. Cc1cc(NC(=O)c2cn([C@H]3CC[C@H](O)CC3)c3ncccc3c2=O)sn1 [Example 176]
4. O=C(O[C@H]1CC[C@H](n2cc(C(=O)Nc3c(Cl)cncc3Cl)c(=O)c3cccnc32)CC1)c1ccc(CN2CCOCC2)cc1 [Example 135, hydrochloride]
Inquiry: Please give the order of these molecules when sorted by IC50, largest value leading. Write the labels out in the order the request specifies.
Reply text: 3, 2, 1, 4

P. O=C(Nc1c(Cl)cncc1Cl)c1cn(C2CC2)c2ncccc2c1=O [Example 140]
Q. O=C(Nc1ccncc1)c1cn(C2CCCC2)c2ncccc2c1=O [Example 149]
Inquiry: Please indicate which entry, P or Q , has the lower recorded IC50 value. Your answer should be the label of the entry you select.
Reply text: P
(P: 0.0025 µM, Q: 0.041 µM)

* * *

studySystem: type IV phosphodiesterase
protocolText: Type IV phosphodiesterase inhibiting activity
measurementContext: U937 type IV phosphodiesterase fraction, 0.28 μM cAMP, pH 7.5, 30° C., 30 minutes; read-out: PDEIV-IC50
Counter-ions that a name gives are not always drawn.
assayReadout: IC50 (nM)

// below: answered molecules
>>> print(df.to_string())
                                   molecule  measuredvalue
0  O=C(Nc1c(Cl)cncc1Cl)c1cn(C2CCNCC2)c2ncccc2c1=O [Example 47, hydrochloride]             40
1  Cc1cnccc1NC(=O)c1cn([C@H]2CC[C@H](O)CC2)c2ncccc2c1=O [Example 174]            130
2  O=C1CCC(n2cc(C(=O)Nc3ccncc3)c(=O)c3cccnc32)CC1 [Example 61]            180
3  Cc1nn(C)c(C)c1NC(=O)c1cn([C@H]2CC[C@H](O)CC2)c2ncccc2c1=O [Example 184]           2300
4  O=C(Nc1c(Cl)cncc1Cl)c1cn(C2CC[S+]([O-])CC2)c2ncccc2c1=O (centres unmarked) [Example 102 (Sulfoxide)]            5.1

A. CC(=O)O[C@H]1CC[C@H](n2cc(C(=O)Nc3c(Cl)cncc3Cl)c(=O)c3cccnc32)CC1 [Example 197]
B. COC(=O)N1CC[C@@H](n2cc(C(=O)Nc3c(Cl)cccc3Cl)c(=O)c3cccnc32)C1 [Example 16]
Inquiry: Please indicate which entry, A or B , has the lower recorded IC50 value. Your answer should be the label of the entry you select.
Reply text: A
(A: 6.2 nM, B: 54 nM)

* * *

studySystem: type IV phosphodiesterase
protocolText: Type IV phosphodiesterase inhibiting activity
measurementContext: U937 type IV phosphodiesterase fraction, 0.28 μM cAMP, pH 7.5, 30° C., 30 minutes; read-out: PDEIV-IC50
Structures can show the parent of a compound that is named as a salt.
assayReadout: IC50 (nM)

// below: answered compounds
In [3]: df
Out[3]:
                                   compound                studysystem  assayreadout  unitabbreviation  measuredvalue
0  O=C1CCC(n2cc(C(=O)Nc3ccncc3Cl)c(=O)c3cccnc32)CC1  type IV phosphodiesterase          IC50                nM            390
1  CS(=O)(=O)N[C@H]1CC[C@H](n2cc(C(=O)Nc3c(Cl)cncc3Cl)c(=O)c3cccnc32)CC1  type IV phosphodiesterase          IC50                nM            110
2  COC(=O)N1CCN(n2cc(C(=O)Nc3c(Cl)cncc3Cl)c(=O)c3cccnc32)CC1  type IV phosphodiesterase          IC50                nM            1.6
3  COC(=O)N1CCC(n2cc(C(=O)Nc3c(Cl)cncc3Cl)c(=O)c3cccnc32)CC1  type IV phosphodiesterase          IC50                nM            0.9

A. CN1CCN(Cc2ccc(C(=O)O[C@H]3CC[C@H](n4cc(C(=O)Nc5c(Cl)cncc5Cl)c(=O)c5cccnc54)CC3)cc2)CC1 [Example 133, dihydrochloride]
B. COC(=O)N1CC[C@H](n2cc(C(=O)Nc3c(Cl)cccc3Cl)c(=O)c3cccnc32)C1
C. O=CN1CCC(n2cc(C(=O)Nc3c(Cl)cncc3Cl)c(=O)c3cccnc32)CC1
D. O=C(Nc1c(Cl)cncc1Cl)c1cn(C2CCCC2)c2ncccc2c1=O
E. O=C(Nc1ccncc1)c1cn([C@H]2CC[C@H](O)CC2)c2ncccc2c1=O
Inquiry: # rank by IC50, ascending (min first) Write the labels out in the order the request specifies.
Reply text: D, C, A, B, E
